All values here come from PubChem BioAssay (EPA / NIEHS).

# experimental_details: BSK_3C_TissueFactor: BioMAP Diversity Plus: 3C Assay for Tissue Factor Biomarker Activity (AID 2282997)
# condition_parameters: BioMAP 3C HUVEC, tissue factor biomarker readout; actives raise or lower the signal
The source made the active and inactive calls. How the source made its calls: active means hit-call score of the fitted dose curve at least 0.9, where 1 is the maximum; inactive means score below 0.9.
Answer with one of the outcomes active, inactive

# count of solved cases: 5
INSERT INTO measurements (compound, discrete_label) VALUES
  ('O=C(OCCCCCOC(=O)c1ccccc1)c1ccccc1', 'inactive'),
  ('O=C(O)Cc1ccccc1Nc1c(Cl)cccc1Cl', 'inactive'),
  ('CCCCCCCC=O', 'inactive'),
  ('c1cc(-c2ccncc2)ccn1', 'inactive'),
  ('Cc1ccc(C)c(O)c1C', 'inactive');

Now, please, on to the next compound.
[in] I'd appreciate the recorded outcome for CN1CCN(Cc2cc(-c3ccc4[nH]c(=O)oc4c3)co2)[C@@H](c2ccc(F)cc2)C1 from this test.
[out] inactive

---

# experimental_details: BSK_SAg_PBMCCytotoxicity: PBMC Cytotoxicity Assessment in the BioMAP Diversity Plus: SAg Assay (AID 2283093);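 further: PBMC viability measured as Alamar Blue reduction fluorescence at 546/580 nm; fitted both ways against DMSO so a hit may be loss or gain of signal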
# condition_parameters: primary human HUVEC with PBMC
The source made the active and inactive calls. How the source made its calls: active means hit-call score of the fitted dose curve at least 0.9, where 1 is the maximum; inactive means score below 0.9.
Respond using exactly one of the listed classes: active, inactive

[in] Any idea what this test logged for CC1=C(/C=C/C(C)=C/C=C/C(C)=C/CO)C(C)(C)CCC1 ?
[out] inactive

---

# experimental_details: BSK_3C_SRB: Viability Assessment in the BioMAP Diversity Plus: 3C Assay (AID 2283023);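 further: cells read 24 h after compound dosing; fitted both ways against DMSO so a hit may be signal rise or drop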
# condition_parameters: primary human endothelial cells (HUVEC)
The source made the active and inactive calls. The calls were made as follows: active = hit-call score of the fitted dose curve at least 0.9, where 1 is the maximum; inactive = score below 0.9.
measurement_name: AC50

Worked cases, AC50 given:
INSERT INTO results (smiles_repr, measurement_name, measured_result) VALUES
  ('Cc1ccc(C)c(C)c1', 'AC50', 'inactive'),
  ('c1cc(-c2ccncc2)ccn1', 'AC50', 'inactive'),
  ('CCNc1cccc(C)c1', 'AC50', 'inactive'),
  ('CCOc1ccc2c(c1)C(C)=CC(C)(C)N2', 'AC50', 'inactive'),
  ('COc1ccc(S(=O)(=O)N2C(=O)[C@@](c3ccccc3OC)(N3C[C@H](O)C[C@H]3C(=O)N(C)C)c3cc(Cl)ccc32)c(OC)c1', 'AC50', '27 µM (active)');

[in] // query AC50 value for entry CCCCOC(=O)CCCCCCCCC(=O)OCCCC
[out] inactive

[in] Name the reported AC50 value associated with the molecule FC(F)(F)C(F)(F)C(F)(F)C(F)(F)C(F)(F)C(F)(F)CCI
[out] inactive

[in] What value of AC50 has been recorded for this entry: Oc1ccc2ccccc2c1N=Nc1ccccc1
[out] inactive

[in] So what does the record say about AC50 for Cc1cc(=O)[nH]c(=S)[nH]1 ?
[out] inactive

[in] What measured AC50 goes with CN[C@H]1CC[C@@H](c2ccc(Cl)c(Cl)c2)c2ccc(S(N)(=O)=O)cc21 ?
[out] 16 µM (active)

[in] Using the record for C1CCC(SSC2CCCCC2)CC1 , report its AC50.
[out] inactive

[in] Would you kindly share the measured AC50 for CC1(C)NC(=O)NC1=O ?
[out] inactive

[in] Need AC50 of CC1=C(/C=C/C(C)=C/C=C/C(C)=C/CO)C(C)(C)CCC1 , thanks.
[out] inactive

---

# experimental_details: APR_HepG2_p53Act_72hr: Apredica 72-hour HepG2 Assay for p53 Activation (AID 2282923);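 further: average cellular p53 protein immunofluorescence intensity in HepG2 cells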
# condition_parameters: high-content imaging, actives raise or lower the signal
Activity calls are given as the source filed them. Rule for the calls: active = hit-call score of the fitted dose curve at least 0.9, where 1 is the maximum; inactive = score below 0.9.
measurement_name: AC50

// below: answered molecules
INSERT INTO results (smiles_repr, measurement_name, measured_result) VALUES
  ('C=CCc1ccc(O)c(OC)c1', 'AC50', 'inactive'),
  ('CCCCCCOCCO', 'AC50', 'inactive'),
  ('O=C(O)Cc1ccccc1Nc1c(Cl)cccc1Cl', 'AC50', 'inactive'),
  ('COc1ccc2c(c1)c(CC(=O)O)c(C)n2C(=O)c1ccc(Cl)cc1', 'AC50', 'inactive');

[in] So what does the record say about AC50 for Cc1nc(C)nc(N2C[C@@H](C)N(c3ccnc([C@@H](C)O)n3)[C@@H](C)C2)n1 ?
[out] inactive
